TARGET UNDER TEST: Hemagglutinin of influenza A/Solomon Islands/3/06 (H1N1) on whole virions (Influenza A virus A/Solomon …)
MEASUREMENT PROTOCOL: cell-based or functional assay

[
  {
    "BINDER": "TCN-528 (5087_P17) (antibody, V domains shown) VH: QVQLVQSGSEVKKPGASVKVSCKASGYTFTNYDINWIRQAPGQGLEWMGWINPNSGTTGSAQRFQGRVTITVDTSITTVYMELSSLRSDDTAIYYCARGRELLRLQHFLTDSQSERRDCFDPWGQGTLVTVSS VL: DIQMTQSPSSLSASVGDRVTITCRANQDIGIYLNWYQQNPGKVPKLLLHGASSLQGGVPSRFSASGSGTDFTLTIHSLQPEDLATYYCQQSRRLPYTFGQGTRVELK",
    "% Neutralization (%)": 0
  },
  {
    "BINDER": "TCN-523 (5248_A17) (antibody, V domains shown) VH: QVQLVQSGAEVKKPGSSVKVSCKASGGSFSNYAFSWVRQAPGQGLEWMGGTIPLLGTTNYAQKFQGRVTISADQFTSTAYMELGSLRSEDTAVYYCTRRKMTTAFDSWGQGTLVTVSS VL: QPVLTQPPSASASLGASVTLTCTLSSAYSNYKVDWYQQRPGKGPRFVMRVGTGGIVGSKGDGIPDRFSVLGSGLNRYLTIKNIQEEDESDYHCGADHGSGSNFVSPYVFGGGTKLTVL",
    "% Neutralization (%)": 69
  },
  {
    "BINDER": "TCN-533 (5256_A17) (antibody, V domains shown) VH: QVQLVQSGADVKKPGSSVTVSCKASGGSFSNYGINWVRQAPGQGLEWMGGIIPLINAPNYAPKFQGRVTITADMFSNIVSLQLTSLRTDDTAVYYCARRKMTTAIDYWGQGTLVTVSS VL: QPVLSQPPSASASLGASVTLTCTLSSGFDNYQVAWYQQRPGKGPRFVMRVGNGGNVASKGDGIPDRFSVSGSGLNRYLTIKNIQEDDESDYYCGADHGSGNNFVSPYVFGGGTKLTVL",
    "% Neutralization (%)": 56
  },
  {
    "BINDER": "TCN-553 (5261_C18) (antibody, V domains shown) VH: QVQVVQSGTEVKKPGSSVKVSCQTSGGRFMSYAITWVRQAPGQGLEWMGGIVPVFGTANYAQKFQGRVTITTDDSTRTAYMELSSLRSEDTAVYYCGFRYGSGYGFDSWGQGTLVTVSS VL: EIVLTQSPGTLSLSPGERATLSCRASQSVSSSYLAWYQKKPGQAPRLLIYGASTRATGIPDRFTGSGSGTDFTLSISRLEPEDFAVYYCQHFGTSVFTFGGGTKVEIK",
    "% Neutralization (%)": 87
  },
  {
    "BINDER": "TCN-532 (5262_H18) (antibody, V domains shown) VH: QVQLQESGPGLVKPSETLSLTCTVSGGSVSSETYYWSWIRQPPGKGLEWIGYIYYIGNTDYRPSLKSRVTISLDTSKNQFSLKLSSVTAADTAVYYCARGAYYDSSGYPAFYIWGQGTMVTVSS VL: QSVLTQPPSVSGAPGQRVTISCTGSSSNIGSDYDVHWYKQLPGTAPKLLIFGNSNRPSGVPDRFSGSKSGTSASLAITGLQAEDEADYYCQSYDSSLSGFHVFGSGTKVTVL",
    "% Neutralization (%)": 11
  }
]

Just for reference, patent US20150104459A1 is where these values come from.
